- TEST_SYSTEM: K-Ras G12C (Homo sapiens, UniProt P01116, G12C)
- Construct: This protein contained 188 amino acids in total, including an N-terminal 6-Histidine tag; made in house; host or cells: E. coli BL21
- PROTOCOL_NOTES: CAF assay (% CAF; method in Example 7, not in this part)
- Type: binding
- CONDITION_CONTEXT: 10 μM, 1 h; Table 4
METRIC: % CAF @ 10 μM, 1 h (%)

{"GIVEN_SMILES": "C=CC(=O)N1CCN(c2nc(=O)n3c4c(c(-c5c(F)cc(F)cc5F)c(Cl)cc24)SC[C@H]3COC)[C@@H](C)C1", "TEST_SYSTEM": "K-Ras G12C (Homo sapiens, UniProt P01116, G12C)", "MEASURED": 86.8}
{"GIVEN_SMILES": "C=CC(=O)N1CCN(c2nc(=O)n3c4c(c(-c5c(F)cc(F)cc5F)c(Cl)cc24)SC[C@@H]3CCCN2C[C@@H]3C[C@H]2CO3)[C@@H](C)C1", "TEST_SYSTEM": "K-Ras G12C (Homo sapiens, UniProt P01116, G12C)", "MEASURED": 96.9}
{"GIVEN_SMILES": "C=CC(=O)N1CCN(c2nc(=O)n3c4c(c(-c5c(F)cc(F)cc5F)c(Cl)cc24)SC[C@@H]3CN2CCN(CC)CC2)[C@@H](C)C1", "TEST_SYSTEM": "K-Ras G12C (Homo sapiens, UniProt P01116, G12C)", "MEASURED": 74}
{"GIVEN_SMILES": "C=CC(=O)N1CCN(c2nc(=O)n3c4c(c(-c5ccc(F)cc5F)c(Cl)cc24)SC[C@@H]3CN2CCN(CC)CC2)[C@@H](C)C1", "TEST_SYSTEM": "K-Ras G12C (Homo sapiens, UniProt P01116, G12C)", "MEASURED": 96}
{"GIVEN_SMILES": "C=CC(=O)N1CCN(c2nc(=O)n3c4c(c(-c5ccc(F)cc5F)c(C(F)(F)F)cc24)SC[C@@H]3CC2CCN(CC)CC2)[C@@H](C)C1", "TEST_SYSTEM": "K-Ras G12C (Homo sapiens, UniProt P01116, G12C)", "MEASURED": 97}
{"GIVEN_SMILES": "C=CC(=O)N1CCN(c2nc(=O)n3c4c(c(-c5ccc(F)cc5F)c(C(F)(F)F)cc24)SC[C@@H]3CN2CCN(C3COC3)CC2)[C@@H](C)C1", "TEST_SYSTEM": "K-Ras G12C (Homo sapiens, UniProt P01116, G12C)", "MEASURED": 96}

###

- TEST_SYSTEM: K-Ras G12C (Homo sapiens, UniProt P01116, G12C)
- Construct: This protein contained 188 amino acids in total, including an N-terminal 6-Histidine tag; made in house; host or cells: E. coli BL21
- PROTOCOL_NOTES: CAF assay (% CAF; method in Example 7, not in this part)
- Type: binding
- CONDITION_CONTEXT: 10 uM compound, 1 h incubation
METRIC: % CAF @ 10 uM, 1h

{"MOLECULE": "C=CC(=O)N1CCN(c2nc(=O)n3c4c(c(-c5ccc(F)cc5F)c(Cl)cc24)SC[C@@H]3CN2CCC3(CC2)COC3)[C@@H](C)C1", "MEASURED": "72.3%"}
{"MOLECULE": "C=CC(=O)N1CCN(c2nc(=O)n3c4c(c(-c5ccc(F)cc5F)c(C(F)(F)F)cc24)S(=O)(=O)C[C@@H]3CC2CCN(CC)CC2)[C@@H](C)C1", "MEASURED": "51.5%"}
{"MOLECULE": "C=CC(=O)N1C[C@H](C)N(c2nc(=O)n3c4c(c(-c5cccc6cnn(C)c56)c(Cl)cc24)SC[C@@H]3CN2CCN(CC(F)F)CC2)C[C@H]1C (atropisomer, axis not shown) [Example 570]", "MEASURED": "0%"}
{"MOLECULE": "C=CC(=O)N1[C@H](C)CN(c2nc(=O)n3c4c(c(-c5cc(Cl)c(F)cc5F)c(C(F)(F)F)cc24)SC[C@@H]3COC)C[C@@H]1C [Example 559]", "MEASURED": "83.8%"}
{"MOLECULE": "C=CC(=O)N1[C@H](C)CN(c2nc(=O)n3c4c(c(-c5cc(Cl)c(F)cc5F)c(C(F)(F)F)cc24)SC[C@H](OC)C3)C[C@@H]1C", "MEASURED": "96%"}
{"MOLECULE": "C=CC(=O)N1CCN(c2nc(=O)n3c4c(c(-c5ccc(F)cc5)c(Cl)cc24)SC[C@@H](OC)C3)[C@@H](C)C1", "MEASURED": "96%"}

###

- TEST_SYSTEM: K-Ras G12C (Homo sapiens, UniProt P01116, G12C)
- Construct: This protein contained 188 amino acids in total, including an N-terminal 6-Histidine tag; made in house; host or cells: E. coli BL21
- PROTOCOL_NOTES: CAF assay (% CAF; method in Example 7, not in this part)
- Type: binding
- CONDITION_CONTEXT: 10 uM, 1 h; Table 3
Binarize % CAF @ 10 uM, 1h at 90%; below is 1, at or above is 0.

{"COMPOUND": "C=CC(=O)N1CCN(c2nc(=O)n3c4c(c(-c5ccc(F)cc5F)c(Cl)cc24)SCC3)[C@@H](CS(C)(=O)=O)C1", "TEST_SYSTEM": "K-Ras G12C (Homo sapiens, UniProt P01116, G12C)", "GROUP": 0}
{"COMPOUND": "C=CC(=O)N1CCN(c2nc(=O)n3c4c(c(-c5cccc6cnn(C)c56)c(Cl)cc24)SCC3)[C@@H](C)C1 (atropisomer, axis not shown) [Example 107]", "TEST_SYSTEM": "K-Ras G12C (Homo sapiens, UniProt P01116, G12C)", "GROUP": 1}
{"COMPOUND": "C=C(F)C(=O)N1CCN(c2nc(=O)n3c4c(c(-c5ccc(F)cc5F)c(Cl)cc24)SCC3)[C@@H](C)C1", "TEST_SYSTEM": "K-Ras G12C (Homo sapiens, UniProt P01116, G12C)", "GROUP": 1}
{"COMPOUND": "C=CC(=O)N1CCN(c2nc(=O)n3c4c(c(-c5cc(OC(F)F)ccc5F)c(Cl)cc24)SCC3)[C@@H](C)C1", "TEST_SYSTEM": "K-Ras G12C (Homo sapiens, UniProt P01116, G12C)", "GROUP": 1}
{"COMPOUND": "C=CC(=O)N1CCN(c2nc(=O)n3c4c(c(-c5ccc(F)cc5F)c(C)cc24)SCC3)[C@@H](C)C1", "TEST_SYSTEM": "K-Ras G12C (Homo sapiens, UniProt P01116, G12C)", "GROUP": 0}

###

- TEST_SYSTEM: Cys12 of the KRAS 4B G12C protein (Homo sapiens, UniProt P01116, G12C)
- Construct: This protein contained 188 amino acids in total, including an N-terminal 6-Histidine tag; made in house; host or cells: E. coli BL21
- PROTOCOL_NOTES: In vitro covalent adduct formation (CAF) assay, LC-MS intact mass
- Type: binding
- CONDITION_CONTEXT: 10 uM compound, 60 min

{"COMPOUND": "C=CC(=O)N1C[C@H](C)N(c2nc(=O)n3c4c(c(-c5cc(Br)c(F)cc5F)c(C(F)(F)F)cc24)SCC2(COC2)C3)C[C@H]1C (atropisomer, axis not shown) [Example 1446]", "% CAF 10 uM @ 60 min / %": 45}
{"COMPOUND": "C=CC(=O)N1C[C@H](C)N(c2nc(=O)n3c4c(c(-c5cc(Br)c(F)cc5F)c(C(F)(F)F)cc24)SCC2(COC2)C3)C[C@H]1C [Example 1436]", "% CAF 10 uM @ 60 min / %": 81}
{"COMPOUND": "C=CC(=O)N1[C@H](C)CN(c2nc(=O)n3c4c(c(-c5cccc6cnn(C)c56)c(C(F)(F)F)cc24)SC[C@@H]3CN2CCN(C3CC3)CC2)C[C@@H]1C (atropisomer, axis not shown) [Example 1412]", "% CAF 10 uM @ 60 min / %": 85.4}
{"COMPOUND": "C=CC(=O)N1[C@H](C)CN(c2nc(=O)n3c4c(c(-c5cc(Cl)c(F)cc5F)c(C(F)(F)F)cc24)SC[C@@H]3COCOC)C[C@@H]1C (atropisomer, axis not shown) [Example 1370]", "% CAF 10 uM @ 60 min / %": 94.4}
{"COMPOUND": "C=CC(=O)N1C[C@H](C)N(c2nc(=O)n3c4c(c(-c5cc(Cl)c(F)cc5F)c(C(F)(F)F)cc24)SCC2(COC2)C3)C[C@H]1C [Example 1357a]", "% CAF 10 uM @ 60 min / %": 74.3}
{"COMPOUND": "C=CC(=O)N1[C@H](C)CN(c2nc(=O)n3c4c(c(-c5ccc(F)cc5)c(C(F)(F)F)cc24)SC[C@@H]3CN2CCN(C3CC3)CC2)C[C@@H]1C [Example 1333]", "% CAF 10 uM @ 60 min / %": 61}
{"COMPOUND": "C=CC(=O)N1[C@H](C)CN(c2nc(=O)n3c4c(c(-c5cc(Cl)c(F)cc5F)c(C(F)(F)F)cc24)SC[C@@H]3CN2CC[C@H](F)C2)C[C@@H]1C (atropisomer, axis not shown) [Example 1439]", "% CAF 10 uM @ 60 min / %": 73}
{"COMPOUND": "C=CC(=O)N1CCN(c2nc(=O)n3c4c(c(-c5cc(Cl)c(F)cc5F)c(C(F)(F)F)cc24)SCC2(COC2)C3)CC1 (atropisomer, axis not shown) [Example 1397]", "% CAF 10 uM @ 60 min / %": 78.2}
{"COMPOUND": "C=CC(=O)N1[C@H](C)CN(c2nc(=O)n3c4c(c(-c5cc(Cl)c(F)cc5F)c(C(F)(F)F)cc24)SC[C@@H](N2CCCC2)C3)C[C@@H]1C (atropisomer, axis not shown) [Example 1440]", "% CAF 10 uM @ 60 min / %": 51}
{"COMPOUND": "C=CC(=O)N1CCN(c2nc(=O)n3c4c(c(-c5ccc(F)cc5F)c(C(F)(F)F)cc24)SC[C@@H]3CN2CCN(C3CC3)CC2)CC1 (atropisomer, axis not shown) [Example 1390]", "% CAF 10 uM @ 60 min / %": 96.7}
{"COMPOUND": "C=CC(=O)N1[C@H](C)CN(c2nc(=O)n3c4c(c(-c5ccc(F)cc5F)c(C(F)(F)F)cc24)SC[C@@H]3CN(C)C)C[C@@H]1C (atropisomer, axis not shown) [Example 1324]", "% CAF 10 uM @ 60 min / %": 82.2}
{"COMPOUND": "C=CC(=O)N1[C@H](C)CN(c2nc(=O)n3c4c(c(-c5cc(Br)c(F)cc5F)c(C(F)(F)F)cc24)SC[C@@H]3COC)C[C@@H]1C (atropisomer, axis not shown) [Example 1448]", "% CAF 10 uM @ 60 min / %": 95}
{"COMPOUND": "C=CC(=O)N1CCN(c2nc(=O)n3c4c(c(-c5c(F)ccc6cnn(C)c56)c(C(F)(F)F)cc24)SC[C@@H]3COC)CC1 (atropisomer, axis not shown) [Example 1416]", "% CAF 10 uM @ 60 min / %": 71.3}
{"COMPOUND": "C=CC(=O)N1[C@H](C)CN(c2nc(=O)n3c4c(c(-c5cc(Cl)c(F)cc5F)c(C(F)(F)F)cc24)SC[C@@H](N2CCCC2)C3)C[C@@H]1C (atropisomer, axis not shown) [Example 1441]", "% CAF 10 uM @ 60 min / %": 79}
{"COMPOUND": "[2H]C([2H])([2H])OC[C@H]1CSc2c(-c3ccc(F)cc3F)c(C(F)(F)F)cc3c(N4C[C@@H](C)N(C(=O)C=C)[C@@H](C)C4)nc(=O)n1c23 [Example 1418]", "% CAF 10 uM @ 60 min / %": 95.4}
{"COMPOUND": "C=CC(=O)N1[C@H](C)CN(c2nc(=O)n3c4c(c(-c5cccc6cnn(C)c56)c(C(F)(F)F)cc24)SC[C@@H]3CN2CCN(CC)CC2)C[C@@H]1C (atropisomer, axis not shown) [Example 1389]", "% CAF 10 uM @ 60 min / %": 69.1}
{"COMPOUND": "C=CC(=O)N1C[C@H](C)N(c2nc(=O)n3c4c(c(-c5ccc(F)cc5)c(C(F)(F)F)cc24)SC[C@@H]3COCOC)C[C@H]1C [Example 1328]", "% CAF 10 uM @ 60 min / %": 93.8}
{"COMPOUND": "C=CC(=O)N1C[C@H](C)N(c2nc(=O)n3c4c(c(-c5cc(Cl)c(F)cc5F)c(C(F)(F)F)cc24)SC[C@@H]3CN2CCN(C3CC3)CC2)C[C@H]1C [Example 1307]", "% CAF 10 uM @ 60 min / %": 69.7}
{"COMPOUND": "C=CC(=O)N1CCN(c2nc(=O)n3c4c(c(-c5ccc(F)cc5)c(C(F)(F)F)cc24)SC[C@@H]3COCOC)CC1 [Example 1358]", "% CAF 10 uM @ 60 min / %": 96.3}
{"COMPOUND": "C=CC(=O)N1CCN(c2nc(=O)n3c4c(c(-c5c(F)cc(F)cc5F)c(C(F)(F)F)cc24)SC[C@@H]3COC)CC1 [Example 1379]", "% CAF 10 uM @ 60 min / %": 96.7}
